experiment: Lipophilicity, log P of the compound; format: physicochemical; details: octanol/water
Reported values of logP for individual entries

# structureSmilesString, reportedResult
records = [
    ("Nc1ncnc2c(C(=O)Nc3c(Cl)ccc(NS(=O)(=O)CCCF)c3F)csc12", 3.6),
    ("CCCS(=O)(=O)Nc1ccc(F)c(NC(=O)c2cccc3c(N)ncnc23)c1F", 2.9),
]

Can you share its logP? I mean this compound: CCCS(=O)(=O)Nc1ccc(F)c(NC(=O)c2csc3c(N)ncnc23)c1F 2.7

---

experiment: Oral bioavailability in mouse at 1 mg/kg dosed as crystalline suspension in 20%HPBCD vehicle (20% hydroxypropyl-beta-cyclodextrin/80% water); assay type: ADME, organism-based; conditions: in vivo
observedProperty: bioavailability

Suppose we examine the molecule Nc1ncnc2c(C(=O)Nc3c(Cl)ccc(NS(=O)(=O)CCCF)c3F)csc12 ; what bioavailability value has been reported? > 100%

---

assay: Cmax in mouse at 30 mg/kg, po dosed as crystalline suspension in 20%HPBCD vehicle (20% hydroxypropyl-beta-cyclodextrin/80% water); format: ADME, organism-based; set-up: dose 30 mg/kg, route oral; conditions: in vivo
observedProperty: Cmax (µM)
A number alone suffices; assume µM.

Would you kindly share the measured Cmax for Nc1ncnc2c(C(=O)Nc3c(Cl)ccc(NS(=O)(=O)CCCF)c3F)csc12 ? 162

---

experiment: AUC in mouse at 1 mg/kg, po dosed as crystalline suspension in 20%HPBCD vehicle (20% hydroxypropyl-beta-cyclodextrin/80% water); assay type: ADME, organism-based; design: dose 1 mg/kg, route oral; conditions: plasma
observedProperty: AUC (µM·h)
Give just the numeric value; µM·h need not be written.

Which AUC is reported for this compound? Nc1ncnc2c(C(=O)Nc3c(Cl)ccc(NS(=O)(=O)CCCF)c3F)csc12 84

---

target: Cytochrome P450 2C9 (Homo sapiens)
Sequence (P11712 whole entry): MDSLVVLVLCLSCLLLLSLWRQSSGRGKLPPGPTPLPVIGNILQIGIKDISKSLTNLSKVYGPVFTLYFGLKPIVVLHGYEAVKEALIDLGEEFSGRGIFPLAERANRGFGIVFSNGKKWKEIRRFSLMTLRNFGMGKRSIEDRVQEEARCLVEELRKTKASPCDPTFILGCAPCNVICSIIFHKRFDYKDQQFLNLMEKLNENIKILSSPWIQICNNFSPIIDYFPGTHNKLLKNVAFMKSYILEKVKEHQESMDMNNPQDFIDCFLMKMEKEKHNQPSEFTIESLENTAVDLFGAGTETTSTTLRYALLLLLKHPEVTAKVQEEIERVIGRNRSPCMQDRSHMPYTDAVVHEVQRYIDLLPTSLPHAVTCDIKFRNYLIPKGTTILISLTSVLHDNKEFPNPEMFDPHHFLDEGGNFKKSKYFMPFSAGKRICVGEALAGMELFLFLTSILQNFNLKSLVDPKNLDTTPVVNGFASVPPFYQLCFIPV
observedProperty: pIC50
The read-out pIC50 is expressed as -log10 of concentration in moles per litre.

pIC50 lookup needed for Nc1ncnc2c(C(=O)Nc3c(Cl)ccc(NS(=O)(=O)CCCF)c3F)csc12 , thanks. 5.05

---

target: Serine/threonine-protein kinase B-raf (Homo sapiens, UniProt P15056, V600E); assay: Inhibition of His6X-tagged human B-raf V600E mutant expressed in baculovirus infected insect cells coexpressing […] using [gamma33P]ATP after 60 mins by scintillation counting
Sequence (P15056 2-766 V600E limits assumed): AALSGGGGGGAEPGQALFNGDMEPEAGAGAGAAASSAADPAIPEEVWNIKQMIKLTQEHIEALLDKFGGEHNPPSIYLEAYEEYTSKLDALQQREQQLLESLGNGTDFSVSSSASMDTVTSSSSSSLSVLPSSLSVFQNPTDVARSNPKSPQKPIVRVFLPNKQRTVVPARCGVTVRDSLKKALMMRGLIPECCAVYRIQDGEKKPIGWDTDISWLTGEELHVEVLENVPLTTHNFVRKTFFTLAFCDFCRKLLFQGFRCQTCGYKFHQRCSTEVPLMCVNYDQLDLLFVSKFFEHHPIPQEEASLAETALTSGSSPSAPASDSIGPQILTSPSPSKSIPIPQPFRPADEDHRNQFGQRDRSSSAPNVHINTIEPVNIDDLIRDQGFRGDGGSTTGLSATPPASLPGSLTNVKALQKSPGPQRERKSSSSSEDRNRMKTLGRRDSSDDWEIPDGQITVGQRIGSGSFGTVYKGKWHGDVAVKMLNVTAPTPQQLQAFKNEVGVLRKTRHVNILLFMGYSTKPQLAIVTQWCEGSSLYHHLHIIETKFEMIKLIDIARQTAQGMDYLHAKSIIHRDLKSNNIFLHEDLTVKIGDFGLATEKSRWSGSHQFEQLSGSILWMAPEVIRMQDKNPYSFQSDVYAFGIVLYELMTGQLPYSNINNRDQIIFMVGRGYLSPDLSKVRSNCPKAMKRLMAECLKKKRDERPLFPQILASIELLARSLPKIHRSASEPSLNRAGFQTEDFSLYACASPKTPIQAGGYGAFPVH
IC50 values by entry
// return numeric value only (unit: nM, not printed)

Requested read-out IC50, target or system Serine/threonine-protein kinase B-raf (Homo sapiens, UniProt P15056, V600E), entry CCCS(=O)(=O)Nc1ccc(F)c(NC(=O)Nc2ncnc3[nH]nc(OC)c23)c1F 1.6

Record: Nc1ncnc2c(C(=O)Nc3c(Cl)ccc(NS(=O)(=O)CCCF)c3F)csc12 0.18

---

assay: Cmax in mouse at 50 mg/kg, po dosed as crystalline suspension in 20%HPBCD vehicle (20% hydroxypropyl-beta-cyclodextrin/80% water); format: ADME, organism-based; parameters: dose 50 mg/kg, route oral; settings: in vivo
observedProperty: Cmax (µM)
Your answer is read as µM, so omit the unit and give the number.

Record request: Cmax value, item Nc1ncnc2c(C(=O)Nc3c(Cl)ccc(NS(=O)(=O)CCCF)c3F)csc12 249

---

The following compounds are shown together with reported AUC values.
assay: AUC in mouse at 30 mg/kg, po dosed in 0.5% methylcellulose/0.2% Tween 80/99.3% water; assay type: ADME, organism-based; design: dose 30 mg/kg, route oral; details: in vivo
The reply should be a number in µM·h, with the unit left off.

# structureSmilesString, AUC [µM·h]
measured = [
    ("CCCS(=O)(=O)Nc1ccc(F)c(NC(=O)c2cccc3c(N)ncnc23)c1F", 290),
]

What measured AUC goes with CCCS(=O)(=O)Nc1ccc(F)c(NC(=O)c2csc3c(N)ncnc23)c1F ? 874

---

assay: Oral bioavailability in mouse at 30 mg/kg dosed as crystalline suspension in 20%HPBCD vehicle (20% hydroxypropyl-beta-cyclodextrin/80% water); settings: in vivo
observedProperty: bioavailability

Reported bioavailability for Nc1ncnc2c(C(=O)Nc3c(Cl)ccc(NS(=O)(=O)CCCF)c3F)csc12 : what is it? > 100%

---

experiment: Thermodynamic solubility of the compound at 0.5 mg/ml after 24 hrs by shake flask method at pH 1.2; format: physicochemical; details: buffer, read-out: Therm_solubility
List of solubility thermodynamic at 24 h values.

# structureSmilesString, solubility thermodynamic at 24 h
measured = [
    ("CCCS(=O)(=O)Nc1ccc(F)c(NC(=O)c2cccc3c(N)ncnc23)c1F", "> 1000 µg/mL"),
    ("CCCS(=O)(=O)Nc1ccc(F)c(C(=O)Nc2cnc3[nH]nc(OC)c3c2)c1F", "3 µg/mL"),
    ("CCCS(=O)(=O)Nc1ccc(F)c(NC(=O)Nc2cc(NC)ncn2)c1F", "900 µg/mL"),
    ("Nc1ncnc2c(C(=O)Nc3c(Cl)ccc(NS(=O)(=O)CCCF)c3F)csc12", "700 µg/mL"),
    ("CCCS(=O)(=O)Nc1ccc(F)c(NC(=O)Nc2ncnc3[nH]nc(OC)c23)c1F", "49 µg/mL"),
    ("CCCS(=O)(=O)Nc1ccc(F)c(NC(=O)Nc2cc(NCCO)ncn2)c1F", "900 µg/mL"),
    ("CCCS(=O)(=O)Nc1ccc(F)c(NC(=O)Nc2ncnc3[nH]ncc23)c1F", "7 µg/mL"),
]

Kindly consider the entry below.
What value of solubility thermodynamic at 24 h has been recorded for this entry: CCCS(=O)(=O)Nc1ccc(F)c(NC(=O)c2csc3c(N)ncnc23)c1F > 1000 µg/mL

---

target: RAF proto-oncogene serine/threonine-protein kinase (Homo sapiens, UniProt P04049)
Sequence (P04049 whole entry): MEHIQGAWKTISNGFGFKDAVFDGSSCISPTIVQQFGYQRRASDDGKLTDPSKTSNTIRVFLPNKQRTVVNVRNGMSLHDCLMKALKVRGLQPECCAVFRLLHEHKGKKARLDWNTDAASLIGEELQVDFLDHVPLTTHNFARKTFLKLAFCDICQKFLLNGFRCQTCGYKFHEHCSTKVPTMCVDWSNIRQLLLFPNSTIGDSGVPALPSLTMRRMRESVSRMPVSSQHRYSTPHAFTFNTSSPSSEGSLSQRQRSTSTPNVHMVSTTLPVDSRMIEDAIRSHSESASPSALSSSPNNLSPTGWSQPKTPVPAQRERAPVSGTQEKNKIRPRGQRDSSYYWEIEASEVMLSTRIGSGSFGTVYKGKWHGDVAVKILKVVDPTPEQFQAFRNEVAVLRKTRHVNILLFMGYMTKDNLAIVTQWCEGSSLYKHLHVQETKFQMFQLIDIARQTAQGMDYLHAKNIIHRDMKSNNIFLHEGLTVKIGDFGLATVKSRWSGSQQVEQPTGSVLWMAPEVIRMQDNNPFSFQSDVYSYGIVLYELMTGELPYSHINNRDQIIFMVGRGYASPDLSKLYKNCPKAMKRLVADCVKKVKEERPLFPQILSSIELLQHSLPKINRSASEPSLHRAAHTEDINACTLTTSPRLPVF
observedProperty: IC50 (nM)
Please respond with the number in nM and leave the unit unwritten.

What does the data say about its IC50? Entry: Nc1ncnc2c(C(=O)Nc3c(Cl)ccc(NS(=O)(=O)CCCF)c3F)csc12 73

---

assay: Dissociation constant, pKa of the compound at basic pH; format: physicochemical
observedProperty: pKa
Form field (numeric): enter value without unit.

Use the examples below as a reference point.
# structureSmilesString, pKa
records = [
    ("CCCS(=O)(=O)Nc1ccc(F)c(C(=O)Nc2cnc3[nH]nc(OC)c3c2)c1F", 0.7),
    ("CCCS(=O)(=O)Nc1ccc(F)c(NC(=O)c2cccc3c(N)ncnc23)c1F", 4.5),
    ("CCCS(=O)(=O)Nc1ccc(F)c(NC(=O)c2csc3c(N)ncnc23)c1F", 3.6),
]

Given the compound Nc1ncnc2c(C(=O)Nc3c(Cl)ccc(NS(=O)(=O)CCCF)c3F)csc12 , what is its reported pKa? 3.6

---

assay: Thermodynamic solubility of the compound at 0.5 mg/ml after 24 hrs by shake flask method at pH 7.4; type: physicochemical; settings: buffer, read-out: Therm_solubility
observedProperty: solubility thermodynamic at 24 h (µg/mL)
Your answer should be a plain number; it is taken to be in µg/mL.

Name the reported solubility thermodynamic at 24 h value associated with the compound CCCS(=O)(=O)Nc1ccc(F)c(C(=O)Nc2cnc3[nH]nc(OC)c3c2)c1F 9

---

assay: Oral bioavailability in rat at 25 mg/kg dosed as crystalline suspension in 20%HPBCD vehicle (20% hydroxypropyl-beta-cyclodextrin/80% water); type: ADME, organism-based; conditions: in vivo
observedProperty: bioavailability (%)
Could you give me the number in %? Just the number is fine.

If you can, please state the reported bioavailability value of Nc1ncnc2c(C(=O)Nc3c(Cl)ccc(NS(=O)(=O)CCCF)c3F)csc12 . 62

---

biological target: Serine/threonine-protein kinase B-raf (Homo sapiens, UniProt P15056)
Sequence (P15056 whole entry): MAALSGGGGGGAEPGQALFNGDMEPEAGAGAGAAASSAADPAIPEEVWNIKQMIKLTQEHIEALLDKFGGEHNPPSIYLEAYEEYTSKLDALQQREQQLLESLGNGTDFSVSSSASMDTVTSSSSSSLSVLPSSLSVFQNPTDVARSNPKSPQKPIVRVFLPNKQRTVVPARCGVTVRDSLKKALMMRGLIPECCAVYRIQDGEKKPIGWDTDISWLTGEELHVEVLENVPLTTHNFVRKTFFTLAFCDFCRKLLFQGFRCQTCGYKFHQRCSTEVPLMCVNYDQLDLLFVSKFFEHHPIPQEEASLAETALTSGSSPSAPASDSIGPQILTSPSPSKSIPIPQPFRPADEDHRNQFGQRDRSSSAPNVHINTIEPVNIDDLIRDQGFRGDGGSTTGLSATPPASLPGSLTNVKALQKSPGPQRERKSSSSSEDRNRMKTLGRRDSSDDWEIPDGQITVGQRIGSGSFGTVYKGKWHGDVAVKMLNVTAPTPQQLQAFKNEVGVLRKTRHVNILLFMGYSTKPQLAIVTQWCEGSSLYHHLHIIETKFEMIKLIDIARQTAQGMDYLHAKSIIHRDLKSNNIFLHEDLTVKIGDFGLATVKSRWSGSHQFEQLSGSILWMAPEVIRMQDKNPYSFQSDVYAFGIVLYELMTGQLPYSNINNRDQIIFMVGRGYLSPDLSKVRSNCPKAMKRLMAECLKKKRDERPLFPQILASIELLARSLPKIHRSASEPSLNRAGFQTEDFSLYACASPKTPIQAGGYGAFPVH
observedProperty: pIC50
Just the number, please; pIC50 means minus log10 of the concentration in mol/L.

Endpoint output: pIC50 of Nc1ncnc2c(C(=O)Nc3c(Cl)ccc(NS(=O)(=O)CCCF)c3F)csc12 . Value? 7.66

---

biological target: Serine/threonine-protein kinase B-raf (Homo sapiens, UniProt P15056, V600E); experiment: Inhibition of His6X-tagged human B-raf V600E mutant expressed in baculovirus infected insect cells coexpressing […] using [gamma33P]ATP after 60 mins by scintillation counting in presence of 1 mM ATP
observedProperty: pIC50
Answer as the number alone; pIC50 is minus log10 of concentration in mol/L.

Any idea what pIC50 was measured for Nc1ncnc2c(C(=O)Nc3c(Cl)ccc(NS(=O)(=O)CCCF)c3F)csc12 ? 8.70

---

assay: Oral bioavailability in mouse at 30 mg/kg dosed as crystalline suspension in 20%HPBCD vehicle (20% hydroxypropyl-beta-cyclodextrin/80% water); format: ADME, organism-based; conditions: in vivo
observedProperty: bioavailability

Fill blank: measured bioavailability of the molecule Nc1ncnc2c(C(=O)Nc3c(Cl)ccc(NS(=O)(=O)CCCF)c3F)csc12 is ____. > 100%

---

Listing of entries alongside the reported solubility thermodynamic at 24 h.
assay: Thermodynamic solubility of the compound at 0.5 mg/ml after 24 hrs by shake flask method at pH 6.5; type: physicochemical; conditions: buffer, read-out: Therm_solubility
Give the value in µg/mL but do not write µg/mL after it.

In the examples that follow, each entry is paired with its recorded solubility thermodynamic at 24 h.
# structureSmilesString, observedProperty, unitsSymbol, reportedResult
measured = [
    ("Nc1ncnc2c(C(=O)Nc3c(Cl)ccc(NS(=O)(=O)CCCF)c3F)csc12", "solubility thermodynamic at 24 h", "µg/mL", 10),
    ("CCCS(=O)(=O)Nc1ccc(F)c(C(=O)Nc2cnc3[nH]nc(OC)c3c2)c1F", "solubility thermodynamic at 24 h", "µg/mL", 4),
    ("CCCS(=O)(=O)Nc1ccc(F)c(NC(=O)c2cccc3c(N)ncnc23)c1F", "solubility thermodynamic at 24 h", "µg/mL", 1),
]

// returns reported solubility thermodynamic at 24 h for input CCCS(=O)(=O)Nc1ccc(F)c(NC(=O)c2csc3c(N)ncnc23)c1F 5
